- Tested on: NOMO1
- assay_protocol: cell viability relative to DMSO control; higher = less cytotoxic
- run_parameters: HPLM + 10% dialyzed FBS; 48 h; 0.000781 µM
assay_endpoint: cell viability (%)
Lab book: enter the figure in %, no units written.

# compound_smiles, system_name, cell viability / %
records = [
    ("CO[C@H]1/C=C/O[C@@]2(C)Oc3c(C)c(O)c4c(O)c(c(/C=N\\N5CCN(C6CCCC6)CC5)c(O)c4c3C2=O)NC(=O)/C(C)=C\\C=C\\[C@H](C)[C@H](O)[C@@H](C)[C@@H](O)[C@@H](C)[C@H](OC(C)=O)[C@@H]1C", "NOMO1", 119),
    ("C=CCc1cc(OC)c(O)c(C(=O)NCCO)c1", "NOMO1", 98.4),
    ("O=C(C1CC1)N1CC[C@@H](Cn2c(-c3ccc(-c4ccc5occc5c4)cc3)nc3cnccc32)C1", "NOMO1", 93.7),
    ("N#CC1(c2ccc(NC(=O)c3cccnc3NCc3ccncc3)cc2)CCCC1", "NOMO1", 112),
    ("O=C(O)c1ccc(-c2c[nH]c3ncc(-c4ccccc4)cc23)cc1C1CCCC1", "NOMO1", 114),
]

Exercise: I am curious: what cell viability value has been reported for CC1=CC=C2\N=C/3N(CC[C@@]3(O)C(=O)C2=C1)C4=CC=CC=C4 ?
Key: 102

Exercise: I am curious: what cell viability value has been reported for NC(=O)c1ccc(-c2nc(-c3ccc4c(c3)OCO4)c(-c3ccccn3)[nH]2)cc1 ?
Key: 114

Exercise: I am curious: what cell viability value has been reported for O=C(c1ccc(/C=C/c2n[nH]c3ccccc23)cc1)N1CCNCC1 ?
Key: 108

Exercise: I am curious: what cell viability value has been reported for CC[C@H](NC(C)C)[C@H](O)c1ccc(O)c2[nH]c(=O)ccc12 ?
Key: 113

Exercise: I am curious: what cell viability value has been reported for CC1(C)Cc2c(sc(NC(=S)NC(=O)c3ccccc3)c2C(=O)O)CO1 ?
Key: 102
